# TARGET_ENTITY: T1, HMG1 purified from bovine (calf) thymus (bovine, UniProt P10103 2-215)
# T1 construct: also called Calf thymus HMGB1; thymus HMG1
# T1 sequence (looked up): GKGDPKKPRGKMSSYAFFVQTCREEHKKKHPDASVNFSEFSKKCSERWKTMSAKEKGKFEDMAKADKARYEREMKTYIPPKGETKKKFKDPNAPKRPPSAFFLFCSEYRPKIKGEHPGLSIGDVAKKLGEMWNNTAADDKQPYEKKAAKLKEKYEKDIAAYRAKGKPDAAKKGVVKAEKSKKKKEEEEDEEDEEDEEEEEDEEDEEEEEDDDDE
# MEASUREMENT_DESCRIPTION: ELISA, wells coated with calf thymus HMGB1 at 5 ug/mL, antibody at 10 ug/mL, anti-human kappa/lambda-HRP, OD 490

[
  {
    "BINDER": "anti-HMG1 antibody S12 (antibody, V domains shown) VH: EVQLLESGGGLVQPGGSLRLSCAASGFTFSKYIMHWVRQAPGKGLEWVSGIVPSGGLTEYADSVKGRFTISRDNSKNTLYLQMNSLRAEDTATYYCAKEIFGQFDYWGQGTLVTVSS VL: AQSALTQPPSVSAAPRQRVTISCSGSTSNIGNNAVTWYQYFPGKAPKLLIYSDNQRPSGVPDRFSGSKSGTSASLAITGLQAEDEADYYCQSYDRGLSVVFGGGTKLTVL",
    "binding result": "binds"
  },
  {
    "BINDER": "anti-HMG1 antibody G20 (antibody, V domains shown) VH: EVQLLESGGGLVQPGGSLRLSCAASGFTFSWYDMFWVRQAPGKGLEWVSWISPSGGYTKYADSVKGRFTISRDNSKNTLYLQMNSLRAEDTAMYYCARSGLDYYDSSGYLDAFDIWGQGTMVTVSS VL: DIQMTQSPSSVSASVGDRVTITCRASQDVSIWLAWYQQKPGKAPKLLIFGASRLQSGVPSRFSGSRSGADFTLTIDSVQPEDFASYYCQQADSFPLTFGGGTKVEIK",
    "binding result": "binds"
  },
  {
    "BINDER": "anti-HMG1 antibody G35 (antibody, V domains shown) VH: EVQLLESGGGLVQPGGSLRLSCAASGFTFSWYKMVWVRQAPGKGLEWVSSIVPSGGITIYADSVKGRFTISRDNSKNTLYLQMNSLRAEDTAVYYCARVQQWLGRPYFDYWGQGTLVTVSS VL: DIQMTQSPLSLPVTPGEPASISCRSSQSLLHGNGYNYLDWYLQRPGQSPQLLIYSGSNRASGVPDRFSGSGSGTDFTLKISRVEAEDVGVYYCMQSLQSRTFGQGTKVEIK",
    "binding result": "binds"
  }
]
